# Tested on: c-Src;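 also: 11-residue human phosphosite peptides and single-mutation variants displayed on the E. coli surface, counted by deep sequencing, each peptide's frequency after selection divided by its frequency in the unselected input library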;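 also: frequency after pTyr selection over input frequency; kinase dosed for 20-30% of maximal phosphorylation in three min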
# measurement-notes: phosphorylation enrichment, bacterial display (enrichment ratio); higher = better substrate or ligand; peptides without Tyr show the background
I would appreciate it if you labelled entries y when phosphorylation enrichment is 0.4 or higher, otherwise n.

1. GGYTCYSDGKK [PROS1_Y266_C267S]; y
2. GSRGKCSSGFR [ATM_Y332_Y332C]; n
3. EFGSGYPNDPK [RNASEH2A_Y210_D205E_YF]; y
4. DEGVNYFMSKG [FBXO8_Y156]; n
5. PGDGEYFTLQI [TP53_Y327_L323G]; y
6. NFRRGYHLQVL [CD200R1L_Y138_H135R]; n
7. KILGRYYETSS [PAX2_Y72_G76S]; y
8. QEGPEYWDGNT [HLA-B_Y83_R86G]; y
9. VPLLEYYRDIF [CDAN1_Y712]; y
10. YRDMDYRSYPH [RBM10_Y41_R46H]; n
11. LEIETCRRLLD [KRT12_Y429_Y429C]; y
12. YSQNIYIQNRN [PKP2_Y631]; y
13. AVAFVYFKSIG [ADGRL4_Y301_YF]; y
14. VDTRAYLTSAT [MT-CO1_Y304_F305L]; y
15. TVFSDYLHPQF [CCPG1_Y569_YF]; y
16. SMAKYYASEIA [ACADSB_Y373]; y
17. KFVKMYDNHQL [MYO9A_Y203_YF]; n
18. IIQRAYRGHLL [SCN1A_Y1926_R1928G]; y
19. DHYNQYEQQKM [CHD7_Y75]; y
20. YCIDHYLGKEM [G6PD_Y202_R198C]; y
21. QYKDKYLAKHN [CASK_Y712]; n
22. VTAALYGRLYE [BTD_Y536]; y
23. FCVDCYKNFVA [FHL1_Y213_YF]; y
24. DLDFTYIYPNI [PTEN_Y27_L25F]; y
25. RGKDSYETSKL [SPP1_Y225_Q229K]; y
26. GKSFIYAAFHA [KCNT1_Y563_T562I]; y
27. IMWDSYTTNKV [GNB3_Y85_V81M]; n
28. TKLKDYYIFNK [CCDC42_Y149_A144T]; y
29. PVGVLYKVKVY [PTS_Y128]; y
30. LAGRYYALRSM [CKB_Y174_K177R]; y
31. LVMFIYVIFGM [SCN1A_Y1684_A1685V]; n
32. LFSLGYHQSLW [GANAB_Y396_R400L]; y
33. STSKTYVISRT [RBBP6_Y87]; y
34. LKLKAYRFSIS [LCT_Y974_V971L]; y
35. LFIGQYSGKKE [L1CAM_Y1229_S1224L]; y
36. LEFNEYFRDLN [HPRT1_Y198_D194E_YF]; y
37. DGTESYHTVSS [PLK1_Y462_L463H]; y
38. MSRDIYSTDFF [NTRK1_Y676_YF]; y
39. EQKKFYNAVKK [SCN5A_Y1495_M1498V_YF]; y
40. TKAEKYVNKAK [PLCG1_Y991]; y
41. QTEAEYRFIFM [PTPN11_Y511_Q510E_YF]; y
42. KNDSIYVVKGN [KIT_Y823_N822I]; y
43. GANSEYIIAEK [ECHS1_Y35_F33S]; y
44. FSLPAFMDRRD [COX4I1_Y38_Y38F]; y
45. LSSLAYSGKDA [FXN_Y205]; y
46. TDKLFYIFTSG [SLC27A4_Y243_YF]; y
47. VKGGAYNPVTV [MCCC2_Y145_Y146N]; y
48. EKKKYYDAKIE [CASP5_Y104_T106A]; y
49. SGPRHYTIAAL [TTR_Y125_R124H]; y
50. VDGSLYETHPQ [HK1_Y417_K418E]; y
